These data points were gathered from PubChem BioAssay.

Recorded composite z-score for the following compounds
- experiment.summary: small-molecule microarray binders of probe aLefty2, primary screen, biochemical, biotinylated probe, 635/667 nm fluorescence (AID 1094);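 further: score merges spot fluorescence near 667 nm with spot signal-to-noise ratio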
- condition.description: higher = more signal
measured.parameter: composite z-score

| compound | measured.value |
| --- | --- |
| NC(=O)N1C(=O)C2C(C1=O)C1C=C(CCCO)C2C(c2cccs2)N1Cc1cc2c(cc1Br)OCO2 (stereo not drawn) | -0.0362 |
| C=CCOC(=O)[C@@H]1[C@H]2C(=O)O[C@H](c3ccccc3)[C@H](c3ccccc3)N2[C@H](c2ccc(OCCOC(=O)[C@H]3C[C@H]4C(=O)N[C@@H](CC(C)C)C(=O)N4[C@H]3c3ccc(O)cc3)cc2)[C@@]12C(=O)Nc1ccc(I)cc12 | -0.0229 |
| C=CCOC(=O)[C@H]1[C@@H]2C(=O)O[C@@H](c3ccccc3)[C@@H](c3ccccc3)N2[C@@H](c2ccc(OCCOC(=O)[C@H]3C[C@H]4C(=O)N[C@@H](Cc5ccccc5)C(=O)N4[C@H]3c3cccc(OCCO)c3)cc2)[C@]12C(=O)Nc1ccc(I)cc12 | -0.185 |
